- assayed-system: rat brain cortical membranes (GABA receptor complex, [35S]-TBPS binding)
- test-method-notes: Steroid inhibition of [35S]-TBPS binding
- experimental-conditions: 3 nM [35S]-TBPS, in the presence of 5 mM GABA
Give measured IC50 for each item. Keep answers brief.

Problem: Value lookup for IC50; key = CC(=O)[C@H]1[C@H](C)C[C@H]2[C@@H]3CC[C@H]4C[C@](C)(O)CC[C@]4(C)[C@H]3CC[C@@]21C [Compound 64]
Result: 100 to 500 nM

Problem: Value lookup for IC50; key = CC(=O)[C@H]1CC[C@H]2[C@@H]3CC[C@H]4C[C@](C)(O)CC[C@]4(C)[C@H]3CC(=O)[C@]12C [Compound 46]
Result: ≥ 500 nM

Problem: Value lookup for IC50; key = C[C@@]1(O)CC[C@@]2(C)[C@@H](CC[C@@H]3[C@@H]2C[C@@H](O)[C@]2(C)[C@@H](C(=O)Cn4cc5ccncc5n4)CC[C@@H]32)C1 [Compound 49]
Result: 100 to 500 nM

Problem: Value lookup for IC50; key = COC[C@H]1C[C@H]2C[C@](C)(O)CC[C@]2(C)[C@H]2CC[C@]3(C)[C@@H](C(=O)Cn4cc(C#N)cn4)CC[C@H]3[C@H]12 [Compound 13]
Result: ≥ 500 nM

Problem: Value lookup for IC50; key = CC[C@@H]1C[C@H]2[C@@H]3CC[C@H]4C[C@](C)(O)CC[C@]4(C)[C@H]3CC[C@]2(C)[C@H]1C(=O)Cn1nc2ccc(OC)cc2n1 [Compound 70]
Result: ≥ 500 nM

---

Give measured IC50 for each item. Keep answers brief.
- assayed-system: rat brain cortical membranes (GABA receptor complex, [35S]-TBPS binding)
- test-method-notes: Steroid inhibition of [35S]-TBPS binding
- experimental-conditions: 3 nM [35S]-TBPS, in the presence of 5 mM GABA

Problem: Value lookup for IC50; key = CC(=O)[C@H]1[C@H](C)C[C@H]2[C@@H]3CC[C@H]4C[C@](C)(O)CC[C@@H]4[C@H]3CC[C@@]21C (stereo in doubt)
Result: 10 to 50 nM

Problem: Value lookup for IC50; key = CO[C@H]1CC[C@H]2[C@@H]3[C@H](C)C[C@H]4C[C@](C)(O)CC[C@]4(C)[C@H]3CC[C@]12C
Result: ≥ 500 nM

Problem: Value lookup for IC50; key = CO[C@H]1C[C@H]2[C@@H](CC[C@H]3C[C@](C)(O)CC[C@@]32C)[C@@H]2CC[C@@H](C(C)=O)[C@@]12C
Result: ≥ 500 nM

Problem: Value lookup for IC50; key = CC[C@@H]1C[C@H]2[C@@H]3CC[C@H]4C[C@](C)(O)CC[C@]4(C)[C@H]3CC[C@]2(C)[C@H]1C(=O)Cn1cc(C#N)cn1
Result: ≥ 500 nM

Problem: Value lookup for IC50; key = C[C@H]1C[C@H]2C[C@](C)(O)CC[C@]2(C)[C@H]2CC[C@]3(C)[C@@H](C(=O)Cn4cc(C#N)cn4)CC[C@H]3[C@H]12
Result: 100 to 500 nM

---

Give measured IC50 for each item. Keep answers brief.
- assayed-system: rat brain cortical membranes (GABA receptor complex, [35S]-TBPS binding)
- test-method-notes: Steroid inhibition of [35S]-TBPS binding
- experimental-conditions: 3 nM [35S]-TBPS, in the presence of 5 mM GABA

Problem: Value lookup for IC50; key = CC[C@@H]1C[C@H]2[C@@H]3CC[C@H]4C[C@](C)(O)CC[C@]4(C)[C@H]3CC[C@]2(C)[C@H]1C(=O)Cn1nnc2cc(OC)ccc21
Result: ≥ 500 nM

Problem: Value lookup for IC50; key = COC[C@H]1C[C@H]2C[C@](C)(O)CC[C@]2(C)[C@H]2CC[C@]3(C)[C@@H](C(=O)Cn4nnc5cc(OC)ccc54)CC[C@H]3[C@H]12
Result: ≥ 500 nM

Problem: Value lookup for IC50; key = COc1ccc2c(c1)nnn2CC(=O)[C@H]1[C@H](C)C[C@H]2[C@@H]3CC[C@H]4C[C@](C)(O)CC[C@]4(C)[C@H]3CC[C@@]21C
Result: 10 to 50 nM

Problem: Value lookup for IC50; key = COC[C@@H]1C[C@H]2C[C@](C)(O)CC[C@]2(C)[C@H]2CC[C@]3(C)[C@@H](C(C)=O)CC[C@H]3[C@H]12
Result: ≥ 500 nM

Problem: Value lookup for IC50; key = C[C@@]1(O)CC[C@@]2(C)[C@@H](C[C@@H](O)[C@@H]3[C@@H]2CC[C@]2(C)[C@@H](C(=O)Cn4cc(C#N)cn4)CC[C@@H]32)C1
Result: ≥ 500 nM
